Measured values drawn from paper PMC10609152 for this set.

System: HT-29 cells
assay: MTT assay, HT-29
Format: cell-based
experimentalParameters: Homo sapiens; HT-29, 72-h MTT; read-out: Mean IC50 ± SD
This section presents compounds with their documented pIC50 values.
Quick note: pIC50 means taking -log10 of the concentration in moles per liter.

Recorded results for 3 compounds are shown here.
> print(dat)
                                   compound  valuereported
1  COC(=O)C[C@H](N[C@@H](c1ccccc1)c1c(O)ccc2ccccc12)C(=O)OC (mixture of isomers) [MMZ-147B]           4.83
2  COC(=O)[C@H](CC(C)C)N[C@@H](c1ccccc1)c1c(O)ccc2ccccc12 (mixture of isomers) [MMZ-167C]           4.55
3  COC(=O)[C@@H]1CCCN1[C@@H](c1ccccc1)c1c(O)ccc2ccccc12 (mixture of isomers) [MMZ-140C]           4.94

For record COC(=O)[C@H](Cc1ccccc1)N[C@@H](c1ccccc1)c1c(O)ccc2ccccc12 (mixture of isomers) [MMZ-45AA] the listed pIC50 is 4.92

For record COC(=O)[C@@H](N[C@@H](c1ccccc1)c1c(O)ccc2ccccc12)C(C)C (mixture of isomers) [MMZ-33D] the listed pIC50 is 4.42

For record O=c1[nH]cc(F)c(=O)[nH]1 [5-Fluorouracil, reference compound] the listed pIC50 is 5.36

For record COC(=O)[C@@H](N[C@@H](c1ccc(Cl)cc1)c1c(O)ccc2ccccc12)C(C)C (mixture of isomers) [MMZ-39AA] the listed pIC50 is 4.24
